B1: LINE1-full (parent)
chain: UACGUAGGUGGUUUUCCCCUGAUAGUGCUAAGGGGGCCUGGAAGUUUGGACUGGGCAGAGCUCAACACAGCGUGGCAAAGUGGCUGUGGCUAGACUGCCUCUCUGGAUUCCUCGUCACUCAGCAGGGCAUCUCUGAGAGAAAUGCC

- Variants of: B1
- assay_remarks: self-cleavage, relative activity (ratio to wild type); higher = more cleavage; in vitro, sequencing; the parent is a self-cleaving ribozyme
measurement_type: self-cleavage
Field format: numeric only.

Answered examples (5):
> print(dat)
   mutation.spec  measurement.type  measured
1    U115C A142C     self-cleavage      2.05
2     U96C U119C     self-cleavage      0.22
3     A43C G105U     self-cleavage      1.53
4     C66U U115C     self-cleavage      0.01
5     C38A A121U     self-cleavage      1.42

Input: Bench note: what self-cleavage did U23C A24C show?
Output: 1.09

Input: Bench note: what self-cleavage did A79G U91A show?
Output: 0.32

Input: Bench note: what self-cleavage did A24G C51U show?
Output: 1.68

Input: Bench note: what self-cleavage did G34C U47A show?
Output: 0.64
